Values from BindingDB's records for doi:10.1016/s0960-894x(02)00627-3

Molecular target: alpha-L-fucosidase (Bos taurus)
Experiment: Binding affinity against alpha-L-fucosidase in bovine kidney was determined
Outcome measure: pKi
In textbook form, pKi equals minus log to base ten of the concentration in mol/L.

IN: Give alpha-L-fucosidase (Bos taurus) pKi for CCCCCCCNC1CC(C)C(O)C(O)C1O (stereo not given)
OUT: 7.32

IN: Give alpha-L-fucosidase (Bos taurus) pKi for CCCCCCCCCNC1CC(C)C(O)C(O)C1O (stereo not given)
OUT: 6.96

IN: Give alpha-L-fucosidase (Bos taurus) pKi for CCNC1CC(C)C(O)C(O)C1O (stereo not given)
OUT: 6.74

IN: Give alpha-L-fucosidase (Bos taurus) pKi for CC1CC(NCCc2ccccc2)C(O)C(O)C1O (stereo not given)
OUT: 7.49

IN: Give alpha-L-fucosidase (Bos taurus) pKi for CCCCNC1CC(C)C(O)C(O)C1O (stereo not given)
OUT: 7.13
